Source: ChEMBL document CHEMBL4513216

- Tested on: Plasmodium berghei
- ASSAY_EXPLANATION: Screen against P. berghei liver stage (PbLuc), transformed with Luciferase, at 10uM
- Format: functional, HepG2
- TEST_PARAMETERS: tested at 10 uM
Hit rate of the full screen: of about 69,000 compounds, about 8,600 (12%) showed an effect of 50% or more. The sample as a whole holds a higher share of strong results than the screen did.
Lab note - cut at 20% for INHIBITION: Yes if strictly below, No if not.

COc1ccc(C)cc1CN(C)CCCNS(C)(=O)=O; No
CCC[C@H]1CN(c2cncc(C(=O)N3CCCCC3)n2)C[C@@H]1N(C)C; Yes
Cc1cnccc1CN(C)Cc1c[nH]nc1-c1ccc(F)cc1F; Yes
Cn1ncc(NC(=O)c2noc3c2CCCC3)c1C(N)=O; Yes
O=C1[C@H]2CN(C3CCOCC3)C[C@H]2CN1Cc1cccnc1; No
O=C1[C@H]2CN(S(=O)(=O)C3CC3)C[C@H]2CN1Cc1cccnc1; Yes

Now look at this one.
Query string: Please let me know if CO[C@@H]1CCN(Cc2nccs2)C[C@@H]1Cc1ccccc1 shows INHIBITION below 20%.
Result string: No

###

- System: Plasmodium berghei
- ASSAY_EXPLANATION: Screen against P. berghei liver stage (PbLuc), transformed with Luciferase, at 10uM
- Type: functional, HepG2
- TEST_PARAMETERS: tested at 10 uM
Out of some 69,000 compounds screened, about 8,600 (12%) showed an effect of 50% or more. This is one part of a sample in which strong results are shown more often than they occur.
QUANTITY_NAME: INHIBITION
Provide the measurement as a number trailed by its unit.

Solved entries:
CNC(=O)C1CCCCN1C(=O)c1n[nH]c(=O)c2ccccc12 (stereo unspecified); 8.53%
Cc1nn(C)cc1C1=NS(=O)(=O)N(C)C(C(=O)Nc2ccc(Cl)cc2)=C1; 77.7%
Cc1noc([C@H]2COC[C@H]3CN(C(=O)Cc4ccccc4F)C[C@H]32)n1; 12.7%

Query string: Entry Cn1cc(C2CC(=O)NC23CCN(C(=O)Cc2ccccn2)CC3)cn1 (stereo unspecified) , system Plasmodium berghei: what INHIBITION was measured?
Result string: -7.29%

Query string: Entry COCCN(C)c1cnn(C)c(=O)c1Br , system Plasmodium berghei: what INHIBITION was measured?
Result string: 17.5%

Query string: Entry Cc1ncc(CO)c(CN2CCCC2c2nc3c(C)cccc3[nH]2)c1O (stereo unspecified) , system Plasmodium berghei: what INHIBITION was measured?
Result string: -125%

Query string: Entry CCOCCCNC(=O)Cc1cccs1 , system Plasmodium berghei: what INHIBITION was measured?
Result string: 30.8%

###

- System: Plasmodium berghei
- ASSAY_EXPLANATION: Screen against P. berghei liver stage (PbLuc), transformed with Luciferase, at 10uM
- Format: functional, HepG2
- TEST_PARAMETERS: tested at 10 uM
Among all 69,000 compounds or so, about 8,600 (12%) showed an effect of 50% or more. The sample holds strong results, similar compounds and a random draw of the others, so the mix is not that of the screen.
QUANTITY_NAME: INHIBITION (%)
Your answer is read as %, so omit the unit and give the number.

Solved entries:
CC(C)NC(=O)c1cnc(Sc2nccn2C)c(Cl)c1; 62.8
Cc1cccc(C(=O)N2CCc3ncnc(C4CCOC4)c3CC2)n1 (stereo not drawn); 15.9
O=C(NCC(c1cccs1)N1CCOCC1)c1ccc(F)cc1Cl (stereo not drawn); -14.5
CC1(C)CNC(=O)c2nc(CCN3CCOCC3)[nH]c2C1; -13
CC1(C)CNC(=O)c2nc(CCN3CCC(C(N)=O)CC3)[nH]c2C1; 8.38
Cn1ccnc1Sc1ncc(C(=O)N2CCCCC2)cc1Cl; 27.6
CC(=O)Nc1ccc(Oc2cc(C)nc(C3CCCNC3)c2)cc1 (stereo not drawn); 14.355
CCOC(=O)C1CC2(CCCCC2)N2CCC(=O)N12 (stereo not drawn); 54
Cc1nnc(N2CCOC(CN(C)C)C2)c(C#N)c1C (stereo not drawn); 49.25
Cn1c(-c2ccccc2Cl)nc2cc(C(=O)NCCOCCO)cnc21; -50.7

Query string: # INHIBITION lookup, item CNC(=O)CN(C)C(=O)c1cc(Cl)c(Cl)n1C
Result string: 37.1

Query string: # INHIBITION lookup, item Cc1ccc(-c2nc(C(=O)N3CCOCC3)cs2)c(C)c1
Result string: -3.85

Query string: # INHIBITION lookup, item COCCN1CCc2c(CNC(=O)c3nccn3C)cncc2C1
Result string: 43.9

Query string: # INHIBITION lookup, item CN1CCN(S(=O)(=O)c2ccc(Sc3nccn3C)nc2)CC1
Result string: 46.1

Query string: # INHIBITION lookup, item CC(C)CN(Cc1nc2c(cnn2C)c(=O)[nH]1)CC(C)C
Result string: -33.55

Query string: # INHIBITION lookup, item O=C(c1ccoc1)N1CCC2(CC1)COC(COc1ccccn1)C2 (stereo not drawn)
Result string: 73.6

Query string: # INHIBITION lookup, item CC(=O)N1CCN(Cc2ccc3c(c2)OCCO3)CC(O)C1 (stereo not drawn)
Result string: 15.8

Query string: # INHIBITION lookup, item CC(NC(=O)c1cc(-c2cccc(Cl)c2)no1)C(=O)N(C)C (stereo not drawn)
Result string: -21.6

Query string: # INHIBITION lookup, item COc1cc2c(nn1)CCN(Cc1ncc(C(C)(C)C)o1)C2
Result string: 18.9

Query string: # INHIBITION lookup, item CC1(C)CNC(=O)c2nc(CCN3CCC(O)CC3)[nH]c2C1
Result string: 53.3

###

- Test system: Plasmodium berghei
- ASSAY_EXPLANATION: Screen against P. berghei liver stage (PbLuc), transformed with Luciferase, at 10uM
- Assay type: functional, HepG2
- TEST_PARAMETERS: tested at 10 uM
About 8,600 (12%) of roughly 69,000 compounds showed an effect of 50% or more. For the sample, strong results were picked, then their nearest neighbours and some compounds at random.
Answer class 0 if INHIBITION is under 40%, and class 1 if it is 40% or more.

Query string: Hi, just wondering whether COc1ccccc1OCCCc1cncc(C(N)=O)c1 shows INHIBITION of 40% or higher.
Result string: class 1

Query string: Hi, just wondering whether CCCS(=O)(=O)N1CCN(c2ccnc(N3CCCCC3)n2)CC1 shows INHIBITION of 40% or higher.
Result string: class 1

Query string: Hi, just wondering whether Cc1cc(N2CCN(C(=O)Cc3c(C)nc(C)[nH]c3=O)CC2)cc(C)n1 shows INHIBITION of 40% or higher.
Result string: class 0

Query string: Hi, just wondering whether CCCS(=O)(=O)N1CCN(c2ccnc(N3CCCC3)n2)CC1 shows INHIBITION of 40% or higher.
Result string: class 0

Query string: Hi, just wondering whether Cc1nc(CCN(C)C(=O)CN2C(=O)OC[C@@H]2c2ccccc2)no1 shows INHIBITION of 40% or higher.
Result string: class 1

Query string: Hi, just wondering whether CN(C)S(=O)(=O)N1CCN(c2ccnc(N3CCCCC3)n2)CC1 shows INHIBITION of 40% or higher.
Result string: class 1

Query string: Hi, just wondering whether Nc1nc(C(=O)NCC2CCC3(CCNCC3)CO2)cs1 (stereo unspecified) shows INHIBITION of 40% or higher.
Result string: class 1

Query string: Hi, just wondering whether CN(C)c1ncc(-c2ccc(C(N)=O)cc2)c(C2CCNC2)n1 (stereo unspecified) shows INHIBITION of 40% or higher.
Result string: class 0

Query string: Hi, just wondering whether CN(C)S(=O)(=O)N1CCN(c2ccnc(N3CCCC3)n2)CC1 shows INHIBITION of 40% or higher.
Result string: class 0

Query string: Hi, just wondering whether Cc1cccc(-c2noc(CN3CCCCC3Cn3cncn3)n2)c1 (stereo unspecified) shows INHIBITION of 40% or higher.
Result string: class 0

Query string: Hi, just wondering whether Cc1cc(S(C)(=O)=O)c(C)c(S(=O)(=O)N2CCCCCC2)c1 shows INHIBITION of 40% or higher.
Result string: class 0

Query string: Hi, just wondering whether COc1cccc([C@@]2(O)CC[C@@H]3CN(C(=O)c4cn(C)nc4C)C[C@@H]32)c1 shows INHIBITION of 40% or higher.
Result string: class 0

Query string: Hi, just wondering whether Cc1ncsc1CCN(C)C(=O)CN1CCOC1=O shows INHIBITION of 40% or higher.
Result string: class 1

###

- Test system: Plasmodium berghei
- ASSAY_EXPLANATION: Screen against P. berghei liver stage (PbLuc), transformed with Luciferase, at 10uM
- Assay type: functional, HepG2
- TEST_PARAMETERS: tested at 10 uM
Screen size: about 69,000 compounds; about 8,600 (12%) showed an effect of 50% or more. The entries come from a sample that favours strong results as a whole.
Answer not fulfilled if INHIBITION is under 30%, and fulfilled if it is 30% or more.

Example results:
NS(=O)(=O)CCNC(=O)c1nnn(-c2ccccc2)c1C1CC1; fulfilled
O=C(Cc1csc(-c2ccco2)n1)N1CCSCC1; not fulfilled
Cc1cnn(CC2CCCN2Cc2noc(C(C)C)n2)c1 (stereo not drawn); not fulfilled
Cc1cc(C)cc(CN2CCN(Cc3ccc4nonc4c3)CC2=O)c1; fulfilled
CCc1noc(C(C)N(C)CC(=O)Nc2cccc(C)n2)n1 (stereo not drawn); not fulfilled
Cc1ccc(-n2nnc(C(=O)NCC3(CO)CC3)c2C2CC2)cc1; fulfilled
Cn1cc(C(=O)N2CCOc3cc(F)ccc32)ccc1=O; not fulfilled
N#Cc1ccc(CN(CC(N)=O)Cc2cccc(F)c2)cc1; not fulfilled
Cc1cc(CN2CCCC2Cn2cccn2)no1 (stereo not drawn); not fulfilled
CC(NC(=O)CCCN(C)C)c1cn(-c2ccccc2)nn1 (stereo not drawn); not fulfilled

Query string: Hi, just wondering whether CN1CCN(C(=O)c2ccc(=O)n(C)c2)Cc2ccccc21 shows INHIBITION of 30% or higher.
Result string: fulfilled

Query string: Hi, just wondering whether CCc1noc(C(C)N(C)Cc2cc(Br)ccc2OC)n1 (stereo not drawn) shows INHIBITION of 30% or higher.
Result string: fulfilled

Query string: Hi, just wondering whether Cc1ccc(CN2CCN(Cc3ccncc3)CC2=O)cc1 shows INHIBITION of 30% or higher.
Result string: fulfilled

Query string: Hi, just wondering whether CN1C(=O)CN(C(=O)c2ccc(=O)n(C)c2)c2ccccc21 shows INHIBITION of 30% or higher.
Result string: fulfilled

Query string: Hi, just wondering whether OCC1(NCc2cnc(-c3ccccn3)s2)CCOCC1 shows INHIBITION of 30% or higher.
Result string: not fulfilled

Query string: Hi, just wondering whether CCc1noc(C(C)N(C)CC(=O)Nc2c(C)cccc2C)n1 (stereo not drawn) shows INHIBITION of 30% or higher.
Result string: not fulfilled

Query string: Hi, just wondering whether Cc1cc(C)cc(CN2CCN(Cc3cc(C#N)n(C)c3)CC2=O)c1 shows INHIBITION of 30% or higher.
Result string: not fulfilled
